- assayed.target: Plasminogen (Homo sapiens)
- Sequence (P00747 97-580 limits assumed): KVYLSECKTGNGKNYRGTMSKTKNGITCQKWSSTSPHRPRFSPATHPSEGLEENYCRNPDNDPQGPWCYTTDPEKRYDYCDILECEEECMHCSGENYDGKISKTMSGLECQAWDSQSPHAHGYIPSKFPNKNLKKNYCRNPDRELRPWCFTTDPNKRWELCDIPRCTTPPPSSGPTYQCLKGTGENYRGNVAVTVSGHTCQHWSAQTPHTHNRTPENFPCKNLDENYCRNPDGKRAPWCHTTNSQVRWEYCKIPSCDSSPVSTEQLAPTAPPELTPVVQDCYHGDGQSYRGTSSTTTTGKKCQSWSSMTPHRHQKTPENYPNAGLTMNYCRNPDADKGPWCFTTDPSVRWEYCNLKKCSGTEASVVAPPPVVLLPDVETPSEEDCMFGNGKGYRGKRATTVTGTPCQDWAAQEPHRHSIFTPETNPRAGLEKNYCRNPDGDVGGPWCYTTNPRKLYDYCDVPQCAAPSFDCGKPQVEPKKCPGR
- Sequence (P00747 581-810 limits assumed): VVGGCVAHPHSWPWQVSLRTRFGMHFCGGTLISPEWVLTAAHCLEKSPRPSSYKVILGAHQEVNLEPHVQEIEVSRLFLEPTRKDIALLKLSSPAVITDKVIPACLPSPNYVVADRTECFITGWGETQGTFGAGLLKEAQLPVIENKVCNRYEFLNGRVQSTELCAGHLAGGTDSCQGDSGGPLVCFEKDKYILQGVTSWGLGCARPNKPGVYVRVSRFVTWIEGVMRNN
- test.protocol: Inhibition of plasminogen/fibrinogen interaction in pooled citreated human platelet-poor plasma assessed as inhibition of lysis of CaCl2/t-PA-induced clot by microtiter plate analysis
- Format: cell-free
pIC50: −log10 of the molar value.
value.kind: pIC50

IN: State, in one line, measured pIC50 of C1CC(c2nnn[nH]2)CCN1
OUT: < 4.00

----------
- assayed.target: Plasminogen (Homo sapiens)
- test.protocol: Inhibition of human Glu-plasminogen/fibrinogen interaction in HEPES buffer assessed as inhibition of lysis of thrombin-induced clot preincubated for 15 mins prior to thrombin addition measured for 15 hrs by clot-lysis buffer assay
pIC50: −log10 of the molar value.
value.kind: pIC50

IN: State, in one line, measured pIC50 of C1CC(c2nnn[nH]2)CCN1
OUT: < 4.00

----------
- test.protocol: Dissociation constant, pKa of the compound at basic pH by pressure-assisted capillary electrophoresis
- Format: physicochemical
value.kind: pKa
Answers are plain numbers.

Guide cases for pKa, answers given:
NC[C@H]1CC[C@H](C(=O)O)CC1	9.7
C1CC(c2nnn[nH]2)CCN1	10.7

# context switch: different compound, same pKa
IN: State, in one line, measured pKa of Oc1cc(C2CCNCC2)on1
OUT: 10.5

----------
I'd be grateful if you could share measured pKa for these entries.
- test.protocol: Dissociation constant, pKa of the compound at acidic pH by pressure-assisted capillary electrophoresis
- Assay type: physicochemical

Oc1cc(C2CCNCC2)on1	4
NC[C@H]1CC[C@H](C(=O)O)CC1 [TRANEXAMIC ACID]	4.1

# context switch: different compound, same pKa
IN: State, in one line, measured pKa of C1CC(c2nnn[nH]2)CCN1
OUT: 4.3

----------
- test.protocol: Lipophilicity, log D of the compound
- Assay type: physicochemical
- condition.summary: octanol/water
value.kind: logD

IN: State, in one line, measured logD of Oc1cc(C2CCNCC2)on1
OUT: < 0
